Biological target: ATM (Homo sapiens (Human))
Sequence (Q13315 whole entry): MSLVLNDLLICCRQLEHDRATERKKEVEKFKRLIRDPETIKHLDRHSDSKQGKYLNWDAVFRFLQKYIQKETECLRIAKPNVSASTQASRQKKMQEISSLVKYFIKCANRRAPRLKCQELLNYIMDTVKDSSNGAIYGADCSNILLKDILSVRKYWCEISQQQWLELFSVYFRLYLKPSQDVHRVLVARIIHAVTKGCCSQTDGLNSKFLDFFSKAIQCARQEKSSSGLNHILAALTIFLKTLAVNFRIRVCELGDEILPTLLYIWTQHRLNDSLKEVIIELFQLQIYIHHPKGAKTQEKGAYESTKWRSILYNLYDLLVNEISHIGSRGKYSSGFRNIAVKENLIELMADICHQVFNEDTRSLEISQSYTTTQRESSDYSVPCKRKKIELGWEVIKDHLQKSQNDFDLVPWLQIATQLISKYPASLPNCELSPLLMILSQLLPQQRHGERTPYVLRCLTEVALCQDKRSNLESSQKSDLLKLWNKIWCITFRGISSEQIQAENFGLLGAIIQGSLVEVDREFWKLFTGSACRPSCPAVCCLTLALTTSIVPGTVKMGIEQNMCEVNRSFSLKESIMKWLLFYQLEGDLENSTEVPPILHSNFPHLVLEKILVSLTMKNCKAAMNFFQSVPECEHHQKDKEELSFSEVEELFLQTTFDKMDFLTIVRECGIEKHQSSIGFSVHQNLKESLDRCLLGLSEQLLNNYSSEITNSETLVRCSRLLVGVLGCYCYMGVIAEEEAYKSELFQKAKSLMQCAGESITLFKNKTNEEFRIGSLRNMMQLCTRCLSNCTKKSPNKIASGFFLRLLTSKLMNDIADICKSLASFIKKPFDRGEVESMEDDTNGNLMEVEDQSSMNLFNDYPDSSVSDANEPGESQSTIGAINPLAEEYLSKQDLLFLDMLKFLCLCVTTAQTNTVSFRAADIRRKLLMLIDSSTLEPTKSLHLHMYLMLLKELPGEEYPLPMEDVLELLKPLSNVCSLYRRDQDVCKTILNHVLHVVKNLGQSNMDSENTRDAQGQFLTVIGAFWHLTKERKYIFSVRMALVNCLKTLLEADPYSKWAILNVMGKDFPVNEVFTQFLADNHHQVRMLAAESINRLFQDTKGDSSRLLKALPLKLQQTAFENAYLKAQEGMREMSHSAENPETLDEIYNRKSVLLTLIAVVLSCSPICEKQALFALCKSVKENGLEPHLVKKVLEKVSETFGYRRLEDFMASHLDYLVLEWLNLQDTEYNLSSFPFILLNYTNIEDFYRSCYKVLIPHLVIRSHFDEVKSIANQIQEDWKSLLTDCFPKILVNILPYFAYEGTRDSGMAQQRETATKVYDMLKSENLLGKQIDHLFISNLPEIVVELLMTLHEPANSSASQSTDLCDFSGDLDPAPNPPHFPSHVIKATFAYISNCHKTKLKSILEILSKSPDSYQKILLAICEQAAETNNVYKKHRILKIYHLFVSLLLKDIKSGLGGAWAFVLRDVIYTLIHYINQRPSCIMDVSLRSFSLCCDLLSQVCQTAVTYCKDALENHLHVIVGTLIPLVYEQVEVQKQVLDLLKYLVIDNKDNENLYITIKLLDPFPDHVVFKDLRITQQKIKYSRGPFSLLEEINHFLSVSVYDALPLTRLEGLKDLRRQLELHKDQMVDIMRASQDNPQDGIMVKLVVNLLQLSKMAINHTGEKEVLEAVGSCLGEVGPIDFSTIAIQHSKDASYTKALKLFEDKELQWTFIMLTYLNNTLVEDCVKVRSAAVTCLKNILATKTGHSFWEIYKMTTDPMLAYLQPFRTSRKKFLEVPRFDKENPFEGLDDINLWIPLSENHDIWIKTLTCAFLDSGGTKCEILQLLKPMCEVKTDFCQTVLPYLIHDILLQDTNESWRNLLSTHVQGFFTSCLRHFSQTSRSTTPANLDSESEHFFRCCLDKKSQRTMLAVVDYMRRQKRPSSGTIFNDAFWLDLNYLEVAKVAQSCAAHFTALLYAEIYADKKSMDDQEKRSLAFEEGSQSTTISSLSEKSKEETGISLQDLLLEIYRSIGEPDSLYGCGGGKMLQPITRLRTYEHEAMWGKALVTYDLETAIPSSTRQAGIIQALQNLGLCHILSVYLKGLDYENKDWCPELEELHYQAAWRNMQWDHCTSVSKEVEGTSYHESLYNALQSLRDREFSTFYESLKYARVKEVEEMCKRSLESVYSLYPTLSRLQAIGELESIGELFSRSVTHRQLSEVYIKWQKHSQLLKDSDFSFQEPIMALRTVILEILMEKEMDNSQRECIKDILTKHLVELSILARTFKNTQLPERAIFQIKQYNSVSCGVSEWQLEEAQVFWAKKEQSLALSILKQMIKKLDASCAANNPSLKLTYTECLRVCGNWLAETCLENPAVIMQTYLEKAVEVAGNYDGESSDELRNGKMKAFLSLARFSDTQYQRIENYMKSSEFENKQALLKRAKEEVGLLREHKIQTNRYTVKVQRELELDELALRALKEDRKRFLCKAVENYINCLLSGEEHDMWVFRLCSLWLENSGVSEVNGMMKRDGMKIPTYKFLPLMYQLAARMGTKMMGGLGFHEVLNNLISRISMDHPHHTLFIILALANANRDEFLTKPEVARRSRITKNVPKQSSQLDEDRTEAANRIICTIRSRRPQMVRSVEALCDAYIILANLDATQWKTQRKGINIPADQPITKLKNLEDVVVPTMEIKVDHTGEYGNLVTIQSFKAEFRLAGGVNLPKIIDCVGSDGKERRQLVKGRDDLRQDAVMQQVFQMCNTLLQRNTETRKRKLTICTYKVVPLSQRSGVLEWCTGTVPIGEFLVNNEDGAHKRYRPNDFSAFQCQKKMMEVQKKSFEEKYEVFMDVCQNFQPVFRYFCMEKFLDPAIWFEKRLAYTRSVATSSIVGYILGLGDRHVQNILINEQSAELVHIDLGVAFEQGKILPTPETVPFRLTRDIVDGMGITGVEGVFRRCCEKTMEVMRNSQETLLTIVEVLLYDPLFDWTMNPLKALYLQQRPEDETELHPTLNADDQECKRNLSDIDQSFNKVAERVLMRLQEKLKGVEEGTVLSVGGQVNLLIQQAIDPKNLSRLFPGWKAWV
Assay: ATM in Cell Western Assay (pKAP1 in etoposide-treated MCF-7 cells)
Type: cell-based
Details: pKAP1 in etoposide-treated MCF-7 cells
pIC50: −log10 of the molar value. Where a name gives a salt, the structure may show the parent alone.
Give measured pIC50 for each item. Keep answers brief.

Item CO[C@H]1C[C@]2(C1)C(=O)N(C)c1cnc3cc(F)c(-c4cnc(OCCNC(C)C)c(NS(=O)(=O)C5CC5)c4)cc3c12 [Example 387] has what recorded pIC50? 7.00 to 9.00

One more molecule: CC(C)NCCOc1ncc(-c2cc3c(cc2F)ncc2c3[C@]3(C[C@H](C)C3)C(=O)N2C)cc1NS(C)(=O)=O [Example 448] 7.00 to 9.00

Could you do the same for CC(C)NCCOc1ncc(-c2cc3c(cc2F)ncc2c3[C@]3(C[C@@H](c4ccccc4)C3)C(=O)N2C)cc1NS(C)(=O)=O [Example 415, hydrochloride] , please? 7.00 to 9.00

Repeat with CC(C)NCCOc1ncc(-c2cc3c4c(cnc3cc2F)N(C)C(=O)C42CN(c3nn[nH]n3)C2)cc1NS(C)(=O)=O [Example 550] < 7.00

Try the molecule CN1C(=O)C2(CCC2)c2c1cnc1ccc(-c3cnc(N4CC5(CN(C(=O)OC(C)(C)C)C5)C4)c(NS(C)(=O)=O)c3)cc21 [Example 347] < 7.00

Try this molecule next: CN1C(=O)C2(CCC2)c2c1cnc1cc(F)c(-c3cnc(N4CCC(N5CCCCC5)CC4)c(NS(C)(=O)=O)c3)cc21 [Example 358, hydrochloride] 9.00 to 9.30

Moving on to COc1cccc([C@H]2C[C@]3(C2)C(=O)N(C)c2cnc4cc(F)c(-c5cnc(OCCNC(C)C)c(NS(C)(=O)=O)c5)cc4c23)n1 [Example 428] 7.00 to 9.00

Now consider CC(C)CCN1CC2(C1)C(=O)N(C)c1cnc3cc(F)c(-c4cnc(OCCNC(C)C)c(NS(C)(=O)=O)c4)cc3c12 [Example 492] . < 7.00

Lookup CC(C)NCCOc1ncc(-c2cc3c4c(cnc3cc2F)N(C)C(=O)C42CN(c3ccc4c(c3)OCCO4)C2)cc1NS(C)(=O)=O [Example 545] 7.00 to 9.00

Also need CN(C)CCCOc1c(NS(C)(=O)=O)cc(-c2ccc3ncc4c(c3c2)C2(CCC2)C(=O)N4C)cc1C(=O)O [Example 399] , thanks. < 7.00

Would you mind doing CN[C@H]1C[C@@]2(C1)C(=O)N(C)c1cnc3cc(F)c(-c4cnc(OCCNC(C)C)c(NS(C)(=O)=O)c4)cc3c12 [Example 473] as well? 7.00 to 9.00

How about CC(C)NCCOc1ncc(-c2cc3c4c(cnc3cc2F)N(C)C(=O)C42CCC2)cc1NS(=O)(=O)C1(C)CC1 [Example 367] ? 7.00 to 9.00

Next molecule: CC(C)NCCOc1ncc(-c2cc3c(cc2F)ncc2c3[C@]3(C[C@H](c4ccccc4F)C3)C(=O)N2C)cc1NS(C)(=O)=O [Example 426] 7.00 to 9.00

All figures here come from patent US12187742B2.
